System: Mycobacterium tuberculosis
assay summary: Antitubercular activity against Mycobacterium tuberculosis H37Rv measured after 7 days under aerobic condition
Type: functional, organism-based
applied conditions: 168 h
reported endpoint: IC90 (µM)
Reply numerically in µM, unit not repeated.

Answered examples (5):
Lookup: Look up IC90 for this compound: `CNC[C@@H](CO)N1CCN(CCC(c2ccccc2)c2ccccc2)[C@H](CC2CCCCC2)C1`
Found: 50

Lookup: And `CNC[C@@H](Cc1ccccc1)N1CCN(CCC23CC4CC(CC(C4)C2)C3)CC1` ?
Found: 99

Lookup: Please give the result for `CCCC[C@@H](CNC)N1CCN(CCc2c[nH]c3ccccc23)[C@H](C(C)C)C1` too.
Found: 85.3

Lookup: Entry `CNC[C@H](Cc1ccccc1)N1CCN(CCC23CC4CC(CC(C4)C2)C3)[C@H](CO)C1` please
Found: 66.1

Lookup: Please do the same for `CNC[C@@H](Cc1ccccc1)N1CCN(CCC23CC4CC(CC(C4)C2)C3)[C@H](CO)C1` as well.
Found: 75.6

---
Lookup: Which IC90 value is on record for CCC(C)[C@H](CNC)N1CCN(CCC23CC4CC(CC(C4)C2)C3)[C@H](C(C)C)C1 (some centres undefined) ?
Found: 99.5

Lookup: Please do the same for `CNC[C@@H](Cc1ccccc1)N1CCN(CCC23CC4CC(CC(C4)C2)C3)[C@H](C(C)C)C1` as well.
Found: 37

----------
Test system: Mycobacterium tuberculosis
assay summary: Antitubercular activity against Mycobacterium tuberculosis H37Rv measured after 7 days under aerobic condition
Assay type: functional, organism-based
applied conditions: 168 h
Decision: IC90 beneath 60 µM gives 1 (yes); IC90 meeting or exceeding 60 µM gives 0 (no).

Lookup: Take the compound `CCCC[C@@H](CNC)N1CCN(CCC23CC4CC(CC(C4)C2)C3)[C@H](CO)C1` and say whether its IC90 is less than 60 µM.
Found: 0 (no)

Lookup: Can you check CCC(C)[C@H](CNC)N1CCN(CCc2c[nH]c3ccccc23)[C@H](C(C)C)C1 (stereo not given in full) next?
Found: 0 (no)

Lookup: // query: CCCC[C@H](CNC)N1CCN(CCC23CC4CC(CC(C4)C2)C3)[C@H](C(C)CC)C1 (stereo not given in full)
Found: 1 (yes)

Lookup: Same question for CCC(C)[C@@H]1CN([C@H](CNC)Cc2ccccc2)CCN1CCC12CC3CC(CC(C3)C1)C2 (stereo not given in full) please.
Found: 1 (yes)

Lookup: Quick one: CCC(C)[C@@H](CNC)N1CCN(CCc2ccc(C)cc2)CC1 (stereo not given in full)
Found: 0 (no)

Lookup: Further, for `CNC[C@@H](Cc1ccccc1)N1CCN(CCC(c2ccccc2)c2ccccc2)CC1` ?
Found: 0 (no)

Lookup: And the next one, `CNC[C@@H](CO)N1CCN(CCc2ccc(C)cc2)[C@H](CC2CCCCC2)C1` ?
Found: 0 (no)

Lookup: Moving on to CCC(C)[C@@H]1CN([C@@H](CNC)Cc2ccccc2)CCN1CCC12CC3CC(CC(C3)C1)C2 (stereo not given in full)
Found: 1 (yes)

Lookup: What do you have for `CNC[C@H](Cc1ccccc1)N1CCN(CCc2c[nH]c3ccccc23)[C@H](C(C)C)C1` ?
Found: 0 (no)

Lookup: Request: CCCC[C@@H](CNC)N1CCN(CCC23CC4CC(CC(C4)C2)C3)[C@H](C(C)CC)C1 (stereo not given in full)
Found: 1 (yes)

***
Lookup: Dear reviewer, please state whether CNC[C@@H](Cc1ccccc1)N1CCN(CC2CCC(C)CC2)[C@H](C(C)C)C1 (stereo not given in full) has IC90 strictly beneath 60 µM.
Found: 0 (no)

Lookup: Entry to check: `CNCCN1CCN(CCC23CC4CC(CC(C4)C2)C3)[C@H](C(C)C)C1`
Found: 0 (no)

Lookup: Moving on to `CNC[C@@H](CC(C)C)N1CCN(CCc2ccc(C)cc2)CC1`
Found: 0 (no)

Lookup: For `CCCC[C@H](CNC)N1CCN(CCC23CC4CC(CC(C4)C2)C3)[C@H](C(C)C)C1` then?
Found: 0 (no)

----------
Test system: Mycobacterium tuberculosis
assay summary: Antimicrobial activity against Mycobacterium tuberculosis H37Rv expressing bacterial luciferase measured after 10 days under hypoxia condition by LORA assay
Format: functional
applied conditions: 240 h
Listed compounds paired with reported MIC
Output spec: scalar in µM, unitless text.

Lookup: Using the record for CCC(C)[C@@H]1CN([C@@H](CNC)Cc2ccccc2)CCN1CCC12CC3CC(CC(C3)C1)C2 (some centres undefined) , report its MIC.
Found: 9.8

Lookup: Could you do the same for `CNC[C@@H](Cc1ccccc1)N1CCN(CCC23CC4CC(CC(C4)C2)C3)[C@H](C(C)C)C1` , please?
Found: 52.2

Further cases:
Lookup: Name the recorded MIC for `CNC[C@@H](Cc1ccccc1)N1CCN(CCC23CC4CC(CC(C4)C2)C3)CC1` .
Found: 74
